Reference source for all entries: patent US7838271B2

Tested on: purified Rhodococcus sp. FZ4 nitrile hydratase
Experiment: Substrate specificity of purified nitrile hydratase
Type: biochemical
Experimental: A reaction mixture comprising nitrile hydratase solution (0.695 μmol/min; 0.025 ml), different substrates (0.500 ml) and potassium phosphate buffer (0.1 M; pH 7.0; 0.475 ml) was incubated at 20° C. for 5 to 10 min. The concentrations of the substrates used were in the range from 0.015 to 0.250 M. The reaction was stopped by adding MeOH. The amount of amide produced was determined by means of HPLC.
outcomeMeasure: Relative activity (%)
// return numeric value only (unit: %, not printed)

Worked set:
Enquiry: Look up Relative activity for this compound: `CCCC#N`
Return: 578

Enquiry: Look up Relative activity for this compound: `N#Cc1ccccc1Cl`
Return: 0

Enquiry: Look up Relative activity for this compound: C=C(C)C(N)=O [Methacrylamide]
Return: 1.39

Enquiry: Look up Relative activity for this compound: `CCC#N`
Return: 693

Enquiry: Look up Relative activity for this compound: `C=CC#N`
Return: 774

***
Enquiry: Look up Relative activity for this compound: `N#Cc1ccccn1`
Return: 36.7

Enquiry: Look up Relative activity for this compound: `CC=CC#N`
Return: 114

Enquiry: Look up Relative activity for this compound: `N#Cc1ccccc1`
Return: 75.6
